assayMethodText: chemical genetic growth profiling, strain panel (AID 1159580);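 note: tested at 20 µM; growth read once vehicle control cultures reached saturation at 30 °C; 1 = growth at the plate median or of vehicle wells; lower values mean less growth of the strain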
experimentalParameters: S. cerevisiae deletion strains, growth OD, locus YML016C, strain PPZ1, hits give low values
About 2,000 (36%) of roughly 5,500 compounds were called active. Another 18% or so got no clear call; they are omitted. This is one part of the list.
resultType: normalized growth
Answer with a bare number; do not write a unit.

Incoming: What does the data say about its normalized growth? Entry: CC(=O)[C@H]1CCC2C3CC=C4C[C@@H](O)CC[C@]4(C)C3CC[C@@]21C (stereo partly specified)
Outgoing: 1

Incoming: What does the data say about its normalized growth? Entry: C#CCOS(=O)OC1CCCCC1Oc1ccc(C(C)(C)C)cc1 (stereo unspecified)
Outgoing: 1.02

Incoming: What does the data say about its normalized growth? Entry: O=C1c2c(O)ccc(O)c2C(=O)c2c(NCCNCCO)ccc(NCCNCCO)c21
Outgoing: 1.03

Incoming: What does the data say about its normalized growth? Entry: CNCCC=C1c2ccccc2CCc2ccccc21
Outgoing: 1.01

Incoming: What does the data say about its normalized growth? Entry: CN(C)CCC=C1c2ccccc2CCc2ccccc21
Outgoing: 1

Incoming: What does the data say about its normalized growth? Entry: N[C@@H]1CONC1=O
Outgoing: 1.01

Incoming: What does the data say about its normalized growth? Entry: COc1cc([C@@H]2c3cc4c(cc3[C@H](OC(C)=O)[C@H]3COC(=O)[C@H]23)OCO4)cc(OC)c1OC
Outgoing: 0.997

Incoming: What does the data say about its normalized growth? Entry: COc1c2c(cc3c1OCO3)CC[N+](C)=C2
Outgoing: 1.01

Incoming: What does the data say about its normalized growth? Entry: COc1ccc2cc3[n+](cc2c1OC)CCc1cc2c(cc1-3)OCO2
Outgoing: 0.413

Incoming: What does the data say about its normalized growth? Entry: O=C1CCc2cc(OCCCCc3nnnn3C3CCCCC3)ccc2N1
Outgoing: 1.01

Incoming: What does the data say about its normalized growth? Entry: CN(C)CC/C=C1/c2ccccc2COc2ccccc21
Outgoing: 1

Value source: PubChem BioAssay AID1159580
